Test system: turtle Estrogen Receptor (ERa), gene 101933533
Experiment: ATG_trERa_XSP2: Attagene TRANS-FACTORIAL Multi-Species (XSP2) HepG2 Assay for turtle Estrogen Receptor (ERa) (AID 2283812);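 further: human HepG2 liver cells transiently expressing turtle ERa-Gal4 chimeric receptor; reporter mRNA from GAL4-UAS units measured by RT-PCR and capillary electrophoresis; actives raise reporter signal above DMSO so AC50 reflects agonist activity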
Inconclusive results are not listed. Active and inactive are the calls of the source. How the source made its calls: active means hit-call score of the fitted dose curve at least 0.9, where 1 is the maximum; inconclusive means response in the unintended direction; inactive means score below 0.9.
Select the matching outcome among active, inactive

Sample answers from the record:
- Oc1ccc(C(c2ccc(O)cc2)(C(F)(F)F)C(F)(F)F)cc1: active
- Clc1ccc(C(c2ccccc2Cl)C(Cl)(Cl)Cl)cc1 (centres undefined): active
- CC(c1ccc(O)cc1)(c1ccc(O)cc1)c1ccc(O)cc1: inactive

Lab note: next molecule to report on.
Call for entry "ClC(Cl)=C(c1ccc(Cl)cc1)c1ccc(Cl)cc1" :
active

====

Read-out: Early growth response protein 1 (EGR1) transcription factor, EGR1 (gene 1958)
Experiment: LTEA_HepaRG_EGR1: Life Technologies and Expression Analysis (LTEA) Assay for Early growth response protein 1 (EGR1) transcription factor using HepaRG (AID 2283490)
Details: mRNA level, 48 h; actives raise or lower the signal
The source made the active and inactive calls. The calls were made as follows: active = hit-call score of the fitted dose curve at least 0.9, where 1 is the maximum; inactive = score below 0.9.
Write down the outcome that applies. Available outcomes: active, inactive

Worked set:
• CCC(C)(CC)c1cc(NC(=O)c2c(OC)cccc2OC)on1 = inactive
• Clc1ccc(Cl)cc1 = inactive

Tell me the assay call for "Cc1ccc(O)c(C)c1" please.
inactive

Dear colleague, could you share the recorded outcome for "O=S(=O)(O)C(F)(F)C(F)(F)C(F)(F)C(F)(F)F" when you have a moment?
inactive

====

Test: LTEA_HepaRG_LDH_cytotoxicity: Cytotoxicity Assessment in the Life Technologies and Expression Analysis (LTEA) Assay (AID 2283563)
Activity calls are given as the source filed them. Rule for the calls: active = hit-call score of the fitted dose curve at least 0.9, where 1 is the maximum; inconclusive = response in the unintended direction; inactive = score below 0.9.
Hello, when you answer, please use one of the following outcomes: active, inactive

• C[C@]12CCC(=O)C=C1CC[C@@H]1[C@@H]2CC[C@@]2(C)[C@H]1CC[C@]2(C)O = active
• O=S(=O)(O)C(F)(F)C(F)(F)C(F)(F)C(F)(F)C(F)(F)C(F)(F)F = inactive
• Nc1ccc(-c2ccc(N)cc2)cc1 = inactive
• O=S(=O)(O)C(F)(F)C(F)(F)C(F)(F)C(F)(F)F = inactive
• O=C(O)C(F)(F)C(F)(F)C(F)(F)C(F)(F)C(F)(F)F = inactive

Now let's try a different one.
Hello, I am checking results. What call was entered for "O=C(O)C(F)(F)C(F)(F)C(F)(F)C(F)(F)C(F)(F)C(F)(F)C(F)(F)C(F)(F)C(F)(F)F" ?
active

====

Assay: TOX21_p53_BLA_p3_viability: Viability Assessment in the Tox21 HCT-116 p53 Agonism Beta-lactamase Assay, Phase 3 (AID 2283593);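 further: cells exposed to compound for 16 h before reading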
Inconclusive results are not listed. Calls of active or inactive are those of the source. Rule for the calls: active = hit-call score of the fitted dose curve at least 0.9, where 1 is the maximum; inconclusive = response in the unintended direction; inactive = score below 0.9.
The categories you may choose from are active, inactive

* C=CC(=O)NCNC(=O)C=C | inactive

Check the results log: what was the call for "O=S(=O)(O)C(F)(F)C(F)(F)C(F)(F)C(F)(F)C(F)(F)C(F)(F)F" ?
inactive

What was the test verdict on "CCCN(CCC)N=O" ?
inactive

For this compound, state the assay outcome: "CC(C)(O)C(=O)Nc1ccc([N+](=O)[O-])c(C(F)(F)F)c1"
inactive

Look up the recorded call for "CC(C)(c1ccccc1)c1ccc(O)cc1" in this test.
inactive

====

Read-out: Urokinase-type plasminogen activator receptor (uPAR), PLAUR (gene 5329)
Experiment: BSK_4H_uPAR: BioMAP Diversity Plus: 4H Assay for Urokinase-type plasminogen activator receptor (uPAR) Biomarker Activity (AID 2283030)
Details: primary human endothelial cells (HUVEC); actives raise or lower the signal
Calls of active or inactive are those of the source. The calls were made as follows: active = hit-call score of the fitted dose curve at least 0.9, where 1 is the maximum; inactive = score below 0.9.
Output constraint: value belongs to active, inactive

* CCC(=O)O[C@H]1CC[C@H]2[C@@H]3CCC4=CC(=O)CC[C@]4(C)[C@H]3CC[C@]12C | active

Test call for this compound, please: "CC(C)(O)C(=O)Nc1ccc([N+](=O)[O-])c(C(F)(F)F)c1"
inactive

# lookup: test call for "Nn1cnnc1"
inactive

Hi, sorry to bother you, what did the test record for "ClC1=C(Cl)[C@]2(Cl)[C@@H]3[C@@H](Cl)[C@H]4O[C@H]4[C@@H]3C1(Cl)C2(Cl)Cl" ?
inactive

Which result was noted for this compound in the test: "Cc1cccc(C)c1N"
inactive

====

Assay: CCTE_Shafer_MEA_acute_per_burst_spike_number_mean: CCTE's Neural Acute Assay for Average Number of Spikes Per Burst, Shafer Lab (AID 2284015);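 further: hits are decreases in mean spikes per burst versus baseline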
The source made the active and inactive calls. How the source made its calls: active means hit-call score of the fitted dose curve at least 0.9, where 1 is the maximum; inactive means score below 0.9.
readoutLabel: AC50

Examples from the recorded data:
- CCCCCCCCCc1ccc(O)cc1: 11.1 µM (active)
- COS(=O)(=O)OC: inactive
- c1ccc(-c2ccccc2)cc1: inactive
- O=C(NC(=O)c1c(F)cccc1F)Nc1cc(Cl)c(OC(F)(F)C(F)F)c(Cl)c1: inactive
- CCSC(=O)N(CC)C1CCCCC1: 20 µM (active)

Value of AC50 reported for the compound "Nc1ccc(-c2ccc(N)cc2)cc1" is inactive

Given item "CCC(C)(CC)c1cc(NC(=O)c2c(OC)cccc2OC)on1" , the value recorded as its AC50 is inactive

====

Assay: APR_HepG2_MitoticArrest_24hr: Apredica 24-hour HepG2 Assay for Mitotic Arrest (AID 2282910)
Settings: high-content imaging, actives raise or lower the signal
The source made the active and inactive calls. The calls were made as follows: active = hit-call score of the fitted dose curve at least 0.9, where 1 is the maximum; inactive = score below 0.9.
Could you please pick one outcome from this set? 1 = active, 0 = inactive

Some solved cases for reference:
• Cc1ccccc1[N+](=O)[O-] = 0
• C=CC(=O)NCNC(=O)C=C = 0
• O=C(NC(=O)c1cc(F)c(F)cc1Cl)Nc1cc(F)ccc1N1CCC(C(=O)O)CC1 = 0
• N#Cc1ccc(N(CC(N)=O)CC(F)(F)F)cc1C(F)(F)F = 0
• ClC1=C(Cl)[C@]2(Cl)[C@@H]3[C@@H]4C[C@@H]([C@H]5O[C@@H]45)[C@@H]3[C@@]1(Cl)C2(Cl)Cl = 0

Hi, do you know how "CO/C=C(/C(=O)OC)c1ccccc1COc1cccc(C(F)(F)F)n1" came out in this test?
1

Hi team, can someone confirm the assay call for "CC1=C2C[C@H]3[C@@H](CC=C4C[C@@H](O)CC[C@@]43C)[C@@H]2CC[C@]12O[C@@H]1C[C@H](C)CN[C@H]1[C@H]2C" ?
1

====

Read-out: Interferon-gamma inducible Protein 10 (IP10), CXCL10 (gene 3627)
Test: BSK_KF3CT_IP10: BioMAP Diversity Plus: KF3CT Assay for Interferon-gamma inducible Protein 10 (IP10) Biomarker Activity (AID 2283068)
Details: primary human keratinocytes with fibroblasts; actives raise or lower the signal
Calls of active or inactive are those of the source. Rule for the calls: active = hit-call score of the fitted dose curve at least 0.9, where 1 is the maximum; inactive = score below 0.9.
Allowed answers: active, inactive

* COc1ccc(O)c(C(C)(C)C)c1 | inactive
* CC1=C2C[C@H]3[C@@H](CC=C4C[C@@H](O)CC[C@@]43C)[C@@H]2CC[C@]12O[C@@H]1C[C@H](C)CN[C@H]1[C@H]2C | inactive
* CN(C)CCO | inactive
* Oc1ccc(Cl)cc1Cl | inactive
* Nc1ccc(-c2ccc(N)cc2)cc1 | inactive

# outcome recorded in this test, key = "O=S(=O)(O)C(F)(F)C(F)(F)C(F)(F)C(F)(F)C(F)(F)C(F)(F)F"
inactive

So what was the verdict on "Sc1ccccc1" in this test?
inactive

Can you look up the reported call for "Cc1ccccc1CO[C@@H]1C[C@@]2(C(C)C)CC[C@]1(C)O2" for me?
inactive

Answer briefly: the call reported for Clc1ccc(C(c2ccccc2Cl)C(Cl)(Cl)Cl)cc1 (centres undefined) in this assay.
active

Assay result, entry "O=NN(c1ccccc1)c1ccccc1" — outcome?
inactive

====

Read-out: Vascular endothelial growth factor receptor 2 (Homo sapiens) (UniProt P35968)
Assay: BSK_4H_VEGFRII: BioMAP Diversity Plus: 4H Assay for Vascular endothelial growth factor receptor 2 (VEGFR2) Biomarker Activity (AID 2283031)
Conditions: primary human endothelial cells (HUVEC); actives raise or lower the signal
Calls of active or inactive are those of the source. How the source made its calls: active means hit-call score of the fitted dose curve at least 0.9, where 1 is the maximum; inactive means score below 0.9.
Give your call using only these classes: 1 = active, 0 = inactive

- O=S(=O)(O)C(F)(F)C(F)(F)C(F)(F)C(F)(F)F: 0
- CCNc1nc(NC(C)C)nc(SC)n1: 0
- C[C@]12CCC(=O)C=C1CC[C@@H]1[C@@H]2CC[C@@]2(C)[C@H]1CC[C@]2(C)O: 0
- ClC1=C(Cl)[C@]2(Cl)[C@@H]3[C@H]4C[C@H]([C@@H]5O[C@H]45)[C@@H]3[C@@]1(Cl)C2(Cl)Cl: 0
- N#Cc1ccc(N(CC(N)=O)CC(F)(F)F)cc1C(F)(F)F: 0
- Oc1ccc(C(c2ccc(O)cc2)(C(F)(F)F)C(F)(F)F)cc1: 0

Kindly provide the recorded test outcome for the following compound: "Oc1ccc(Cl)cc1Cl"
0

Called result for "Cc1ccc(O)c(C)c1"
0

What was the test verdict on "CCOP(=S)(OCC)SCSC(C)(C)C" ?
0

Name the outcome recorded for C1CC2OC2CC1C1CO1 (stereo unspecified) in the assay.
0

Record lookup: outcome of this test for "COc1ccc(O)c(C(C)(C)C)c1" ?
0

Hi team, can someone confirm the assay call for "CCOCCOC(C)=O" ?
0

Any idea what this test logged for "Clc1ccc(C(Cl)(Cl)Cl)cc1" ?
0

What is the recorded call for this compound in the test? "CC1=C2C[C@H]3[C@@H](CC=C4C[C@@H](O)CC[C@@]43C)[C@@H]2CC[C@]12O[C@@H]1C[C@H](C)CN[C@H]1[C@H]2C"
0

Any idea what this test logged for "O=C(O)C(F)(F)C(F)(F)C(F)(F)C(F)(F)C(F)(F)C(F)(F)C(F)(F)C(F)(F)F" ?
0

# outcome recorded in this test, key = "COS(=O)(=O)OC"
0
